system: P388 leukemia ip, CD2F1 mice, survival T/C; experiment: NCI In Vivo Anticancer Drug Screen. Data for tumor model P388 Leukemia (intraperitoneal) in CD2F1 (CDF1) mice; details: endpoint: median survival time; dose: 200.0 mg/kg/injection; schedule: Q01DX005 (ip); vehicle: Klucel (hydroxypropylcellulose) (HPC); higher = longer survival
Inconclusive results and toxic doses are left out.
Measured T/C, listed per entry for reference.

                                 compound  test_readout       data_value
0         O=C(CNc1ccc(Cl)cc1)c1ccc(Cl)cc1           T/C  90 % of control
1  CN(NC(=O)C(=O)NCc1ccco1)C(=O)NC1CCCCC1           T/C  96 % of control
2    CCCCn1nnc2cc(-c3c(N)nc(N)nc3CC)ccc21           T/C  89 % of control
3              COC(=O)/C=C\C(C)=C/C(=O)OC           T/C  99 % of control
4      CC(=O)NNC(=O)NCCCCCCNC(=O)NNC(C)=O           T/C  92 % of control

Provide only the value of recorded T/C for `Cc1nn2c(-c3ccccc3)cnnc2c1-c1ccccc1` 96 % of control

Provide only the value of recorded T/C for `N=C(N)c1ccc2oc(/C=C/c3ccc(-c4cc5cc(C(=N)N)ccc5o4)cc3)cc2c1` 104 % of control

Provide only the value of recorded T/C for `Cc1ccc(S(=O)(=O)N2c3ccccc3CCN2/C=C/c2ccccc2)cc1` 96 % of control

Provide only the value of recorded T/C for CCOC(=O)C(C#N)C1(O)C(=O)Nc2ccccc21 (stereo not drawn) 103 % of control

Provide only the value of recorded T/C for `CCCCNC(=O)SCCC(=O)OC` 105 % of control

Provide only the value of recorded T/C for COc1ccc2c(c1)OC(C)(C)C(c1ccccc1)C2c1ccc(OCCBr)c([N+](=O)[O-])c1 (stereo not drawn) 97 % of control

###

system: P388 leukemia ip, CD2F1 mice, survival T/C; assay: NCI In Vivo Anticancer Drug Screen. Data for tumor model P388 Leukemia (intraperitoneal) in CD2F1 (CDF1) mice; settings: endpoint: median survival time; dose: 200.0 mg/kg/injection; schedule: Q01DX009 (ip); vehicle: saline with Tween-80; higher = longer survival
Toxic doses and inconclusive results are not listed.
Test readout: T/C

In [3]: df
Out[3]:
                               compound        data_value
0        CCOC(=O)C(=CNc1ccccc1)C(=O)OCC  100 % of control
1  CCCN(CCC)C(=O)c1ccc([N+](=O)[O-])cc1  106 % of control

Provide only the value of recorded T/C for `COC(=O)CCc1onc(Br)c1CCl` 119 % of control

Provide only the value of recorded T/C for `O=[N+]([O-])c1cc([N+](=O)[O-])c2ccccc2c1NS(=O)(=O)c1ccc(Cl)c(Cl)c1Cl` 106 % of control

Provide only the value of recorded T/C for CC(Nc1ccc([N+](=O)[O-])c2nonc12)C(=O)O (stereo not drawn) 86 % of control

Provide only the value of recorded T/C for `COc1ccc(/C(C#N)=C/c2ccccc2)cc1` 101 % of control

Provide only the value of recorded T/C for `N#C/C(=C1C=C/C(=N/O)C=C/1Cl)c1ccccc1` 94 % of control

Provide only the value of recorded T/C for `O=C1CN=C(c2ccccn2)c2cc(Cl)ccc2N1CCO` 105 % of control

Provide only the value of recorded T/C for `CC(C)C(=NC(C)(C)C)Nc1ccccc1Cl` 95 % of control

Provide only the value of recorded T/C for `O=C(O)c1ccc(CCCBr)cc1` 100 % of control

Provide only the value of recorded T/C for `NC(=O)C1CCN(Cc2c[nH]c3ccccc23)CC1` 102 % of control

Provide only the value of recorded T/C for `CCOC(=O)c1ccc(S(C)(=O)=O)cc1` 100 % of control

Provide only the value of recorded T/C for `COC(=O)/C=C/CCO` 108 % of control

###

tested on: P388 leukemia ip, CD2F1 mice, survival T/C; assay: NCI In Vivo Anticancer Drug Screen. Data for tumor model P388 Leukemia (intraperitoneal) in CD2F1 (CDF1) mice; conditions: endpoint: median survival time; dose: 100.0 mg/kg/injection; schedule: Q04DX003 (ip); vehicle: Klucel (hydroxypropylcellulose) (HPC); higher = longer survival
Inconclusive results and toxic doses are left out.
Test readout: T/C

Would you please look over these solved cases?
>>> print(df.to_string())
                                   compound  test_readout        data_value
0                           O=C(O)CCC/C=N/O           T/C   98 % of control
1  CSc1nc(N)nc2c1ncn2C1CC(O)C(CO)O1 (stereo not given)           T/C  100 % of control
2  COC(=O)C1CC2CCCCC2C1C(=O)OC (stereo not given)           T/C   89 % of control
3    CCOC(=O)COC1=NN(c2cccc(C(F)(F)F)c2)CC1           T/C  110 % of control
4                       Nc1nnnn1-c1ccccc1Cl           T/C  105 % of control

Provide only the value of recorded T/C for `C/C(=N\NC(=S)Nc1nccs1)c1ccccn1` 99 % of control

Provide only the value of recorded T/C for `COc1ccc2c(=O)c(-c3ccc(OC)c(OC)c3OC)coc2c1` 99 % of control

Provide only the value of recorded T/C for `Cn1ccc2c1CC(=O)NC2=O` 106 % of control

Provide only the value of recorded T/C for N#CC12C3C4C5C3C1n1c(=O)n(-c3ccccc3)c(=O)n1C5C42 (stereo not given) 106 % of control

Provide only the value of recorded T/C for C[C@@H]1CC(c2ccc(Cl)cc2)[C@@H](c2ccccc2)C(=O)O1 (stereo not given in full) 100 % of control

###

system: P388 leukemia ip, CD2F1 mice, survival T/C; assay: NCI In Vivo Anticancer Drug Screen. Data for tumor model P388 Leukemia (intraperitoneal) in CD2F1 (CDF1) mice; settings: endpoint: median survival time; dose: 25.0 mg/kg/injection; schedule: Q04DX003 (ip); vehicle: saline with Tween-80
Toxic doses and inconclusive results are not listed. How the source made its calls: active means survival T/C of 150% or more; inactive means T/C below 125% in these data.
Can you answer with just one of these options? active, inactive

As a guide, the following entries are already answered.
>>> df
                                   compound                          target_or_system  label_class
0  CCCN=C(N)c1ccc(NC(=O)c2ccc(C(=O)Nc3ccc(C(N)=NCCC)cc3)cc2)cc1  P388 leukemia ip, CD2F1 mice, survival T/C       active
1       NC(N)=NC(N)=Nc1ccc2c(Cl)c(Cl)ccc2c1  P388 leukemia ip, CD2F1 mice, survival T/C     inactive
2           N#CC1(C#N)C(c2ccccc2)C1(C#N)C#N  P388 leukemia ip, CD2F1 mice, survival T/C     inactive
3                 CN(C)S(=O)(=O)c1cccc(N)c1  P388 leukemia ip, CD2F1 mice, survival T/C     inactive
4  Cc1nc2c([N+](=O)[O-])c(N(C)C)c([N+](=O)[O-])cc2[nH]1  P388 leukemia ip, CD2F1 mice, survival T/C     inactive
5                    O=C1/C(=N/O)Cc2ccccc21  P388 leukemia ip, CD2F1 mice, survival T/C     inactive
6  CC1CCCC(NC(=O)N(CCCl)N=O)C1 (stereo not given)  P388 leukemia ip, CD2F1 mice, survival T/C       active
7  [C-]#[N+]C1CCCCC1.[C-]#[N+]C1CCCCC1.[Ni].[S-]c1ccccc1.[S-]c1ccccc1  P388 leukemia ip, CD2F1 mice, survival T/C     inactive
8            c1c(NC2=NCCO2)cc2c3c1CCCN3CCC2  P388 leukemia ip, CD2F1 mice, survival T/C     inactive

Let's switch to this compound now.
Assay outcome for OC1C(c2ccccc2)=C(c2ccccc2)C2(c3ccccc3)CC12c1ccccc1 (stereo not given) : what was it? inactive

###

Measured T/C, listed per entry for reference.
system: P388 leukemia ip, CD2F1 mice, survival T/C; assay: NCI In Vivo Anticancer Drug Screen. Data for tumor model P388 Leukemia (intraperitoneal) in CD2F1 (CDF1) mice; details: endpoint: median survival time; dose: 60.0 mg/kg/injection; schedule: Q01DX005 (ip); vehicle: saline; higher = longer survival
Inconclusive results and toxic doses are left out.

Would you please look over these solved cases?
>>> df
                                   molecule  test_readout        data_value
0           CC(=O)Nc1c(C)ncn(-c2ccccc2)c1=O           T/C   95 % of control
1                          CC1=C(C)C(=O)OC1           T/C  108 % of control
2      COc1cccc2c(=O)c(COC(C)=O)c(C)[nH]c12           T/C  112 % of control
3  COc1ccc(C(=O)c2c(C(=O)NOCCCc3ccccc3)[nH]c(=O)c(C#N)c2C(=O)NOCCCc2ccccc2)cc1           T/C  109 % of control

Provide only the value of recorded T/C for COC(=O)C1(C2CCCCCCCCCCC2=O)NC(=S)NC(=O)C1C#N (stereo unspecified) 96 % of control

Provide only the value of recorded T/C for `O=C1CCC(=O)N1CCCN1CCOCC1` 89 % of control

Provide only the value of recorded T/C for `CCCNC(=O)OCCN(CCOC(=O)NCCC)CCc1cccc(OC)c1OC` 101 % of control

Provide only the value of recorded T/C for CC1=CC(c2ccccc2)=CS(=O)(N(C)C)=C1 (stereo unspecified) 100 % of control

Provide only the value of recorded T/C for COC(OC)C(Sc1ccccc1-n1cccc1)c1ccccc1 (stereo unspecified) 105 % of control

Provide only the value of recorded T/C for `CCOC(=O)CC1(C)c2nc(NC(C)=O)sc2Cc2sc(NC(C)=O)nc21` 101 % of control

Provide only the value of recorded T/C for `COc1ccc(-c2cc(-c3cc(-c4ccc(OC)cc4)nc(N)n3)nc(N)n2)cc1` 105 % of control
